system: galium (catchweed bedstraw, Galium aparine); test: Test A postemergence, galium; format: in vivo; details: Postemergence, 125 g ai/ha; visual injury approx. 10 days; 0 to 100 scale (0 no effect, 100 complete control)
I'd appreciate it if you could supply Plant response rating, Galium values for the items below.
One number for each entry.

Use these answered entries as a reference point.
Compound | Plant response rating, Galium
Cc1cc(C)c(N(S(=O)(=O)C(F)(F)F)S(=O)(=O)C(F)(F)F)cc1-c1cc(C(C)C)nn(C)c1=O | 30
Cc1cc(C2CC2)c(NS(=O)(=O)C(F)(F)F)cc1C(=O)N1CCOCC1 | 20
Cc1cc(C)c(N(S(=O)(=O)C(F)(F)F)S(=O)(=O)C(F)(F)F)cc1-c1cn(C)c(=O)n(C)c1=O | 50
CCCn1nccc(-c2cc(NS(=O)(=O)C(F)(F)F)c(C)cc2C)c1=O | 80
CCn1nc(Cl)cc(-c2cc(NS(=O)(=O)C(F)(F)F)c(C)cc2C)c1=O | 40

Go through the items and report each one's Plant response rating, Galium.
1. Cc1cc(C(F)(F)F)c(C(=O)N(C)C)cc1NS(=O)(=O)C(F)(F)F
2. Cc1ccc(=O)n(-c2cc(NS(=O)(=O)C(F)(F)F)c(C)cc2C)n1
3. COc1cnn(-c2cc(N(S(=O)(=O)C(F)(F)F)S(=O)(=O)C(F)(F)F)c(C)cc2C)c(=O)c1OC

1: 80; 2: 60; 3: 20

----------
I'd appreciate it if you could supply Plant response rating, Corn values for the items below.
test system: corn (Zea mays); test: Test A postemergence, corn; format: in vivo; conditions: Postemergence, 500 g ai/ha; visual injury approx. 10 days; 0 to 100 scale (0 no effect, 100 complete control)
Numbers only.

Use these answered entries as a reference point.
Compound | Target entity | Plant response rating, Corn
Cc1cc(C)c(N(S(=O)(=O)C(F)(F)F)S(=O)(=O)C(F)(F)F)cc1C(=O)N1CCC(Cl)CC1 | corn (Zea mays) | 0
Cc1cc(C)c(N(S(=O)(=O)C(F)(F)F)S(=O)(=O)C(F)(F)F)cc1N1CC2(CCCCC2)OC1=O | corn (Zea mays) | 10
COC1CCN(C(=O)c2cc(NS(=O)(=O)C(F)(F)F)c(Cl)cc2C)CC1 | corn (Zea mays) | 40
Cc1cc(Cl)c(NS(=O)(=O)C(F)(F)F)cc1C(=O)N1CCOCC1C (stereo not shown) | corn (Zea mays) | 60
CC(=O)N(c1cc(N2CCC3(CCCCC3)C2=O)c(C)cc1C)S(=O)(=O)C(F)(F)F | corn (Zea mays) | 60

Go through the items and report each one's Plant response rating, Corn.
1. Cc1cc(F)c(C(=O)N2CCOCC2)cc1NS(=O)(=O)C(F)(F)F
2. Cc1cc(C)c(N2CC3(CCCCC3)OC2=O)cc1NS(=O)(=O)C(F)(F)F
3. Cc1cc(C)c(N2CCC3(CCCC3)C2=O)cc1NS(=O)(=O)C(F)(F)F
4. Cc1cc(Cl)c(C(=O)N2CCOCC2)cc1N(S(=O)(=O)C(F)(F)F)S(=O)(=O)C(F)(F)F
5. Cc1cc(Cl)c(C(=O)N(C)C)cc1NS(=O)(=O)C(F)(F)F

1: 10; 2: 20; 3: 50; 4: 30; 5: 30
